GI50 for assorted compounds
- Test system: SW-620 colon
- test: NCI tumour cell line growth inhibition, 48 h

Query :: Let me know recorded GI50 for "CN(C)CCCNc1nc2ccccc2c2c(=O)c3cc(F)ccc3sc12" , thanks.
Result :: 1.62 µM

Query :: Look up and report measured GI50 for this entry: CCC(=O)OCC1OC(n2cnc3c(=S)nc(N)[nH]c32)C(OC(=O)CC)C1OC(=O)CC (stereo not given)
Result :: 16.3 µM

Query :: Give GI50 for the following compound: "O=C1C(=O)/C(=C/c2ccccc2)CCCCCC/C1=C/c1ccccc1"
Result :: 3.21 µM

Query :: Name the recorded GI50 of the compound listed here: "CCCCc1ccc(NS(=O)(=O)c2cc3c4c(c2)CCN4C(=O)CC3)cc1"
Result :: 33.5 µM

Query :: Report GI50 for "COc1cc(/C=C/[N+](=O)[O-])c([N+](=O)[O-])cc1OC"
Result :: 0.785 µM
